System: HepG2-GM130-SQSTM1
Experiment: phenotypically active (imaging signature differs from DMSO and reproducible) at any of 0.3-9 uM (binary (1 = active, 0 = inactive)); higher = active
Conditions: treatment time: 24 h
Where a name gives a salt, the structure may show the parent alone.
For each record, write down the corresponding phenotypically active.
Answers are plain numbers.

Compound | Target Or Test System | phenotypically active
CC(C)NCC(O)COc1cccc2ccccc12 (centres undefined) [propranolol] | HepG2-GM130-SQSTM1 | 0
COc1cc2c(cc1OC)-c1c/c(=N/c3c(C)cc(C)cc3C)n(C)c(=O)n1CC2 [Trequinsin hydrochloride] | HepG2-GM130-SQSTM1 | 0
N#Cc1c(NC(=O)c2cccc3ccccc23)sc2c1CCCC2 | HepG2-GM130-SQSTM1 | 1

Please state phenotypically active for every compound in the list that follows.
1. O=C1CC(c2ccc(O)cc2)Oc2cc(O)cc(O)c21 (centres undefined) [Naringenine]
2. O=C1NC(=O)C(c2ccccc2[N+](=O)[O-])=C1Nc1ccc(O)c(Cl)c1

1. 0
2. 1

====

Tested on: WPMY1-ACTB-RAB5A
Test: phenotypically active (imaging signature differs from DMSO and reproducible) at any of 0.3-9 uM (binary (1 = active, 0 = inactive)); higher = active
Settings: treatment time: 24 h
Observable: phenotypically active
Give bare numbers.

Compound | Value
CNC(=C[N+](=O)[O-])NCCSCc1ccc(CN(C)C)o1 [ranitidine] | 0
NS(=O)(=O)c1nn2cc(-c3ccccc3)nc2s1 | 1
Cc1cnc(NC(=O)C2=C(O)c3ccccc3S(=O)(=O)N2C)s1 [meloxicam] | 0
CC(C)(C)c1cnc(CSc2cnc(NC(=O)C3CCNCC3)s2)o1 | 1
NS(=O)(=O)C#Cc1ccccc1 [pifithrin-mu] | 0

Give phenotypically active for all compounds that follow.
1. CCCCC1=NC2(CCCC2)C(=O)N1Cc1ccc(-c2ccccc2-c2nnn[nH]2)cc1 [irbesartan]
2. CN1C(=O)CC[C@H]1c1cccnc1 [(-)-Cotinine]

[0, 0]

# batch size: 2; output phenotypically active per entry
1. Cc1c(-c2ccccc2)oc2c(C(=O)OCCN3CCCCC3)cccc2c1=O [flavoxate]
2. CCO[C@@H](Cc1ccc(OCCc2ccc(OS(C)(=O)=O)cc2)cc1)C(=O)O [Tesaglitazar]

[0, 0]

What measured phenotypically active goes with Cc1cc(C(C)(C)C)c(O)c(C)c1CC1=NCCN1 [oxymetazoline] ?
0

====

Tested on: HepG2-TUBA1B-RELA
Assay: phenotypically active (imaging signature differs from DMSO and reproducible) at any of 0.3-9 uM (binary (1 = active, 0 = inactive)); higher = active
Settings: treatment time: 24 h
Where a name gives a salt, the structure may show the parent alone.
Observable: phenotypically active
One number for each entry.

These solved cases illustrate the format of a correct answer.
Molecule | phenotypically active
Cc1c(C(=O)N2CCOc3ccc(-c4ccc(N)nc4)cc3C2)ccc(S(C)(=O)=O)c1F | 1
C[C@H]1Oc2cc(cnc2N)-c2c(nn(C)c2C#N)CN(C)C(=O)c2ccc(F)cc21 | 1
O=c1cc(-c2ccccc2)oc2cc(O)cc(O)c12 | 0
O=c1cc(-c2ccc(O)cc2)oc2cc(O)cc(O)c12 | 1
Cc1ccc(OCCSc2ncccn2)c(Br)c1 [ZLN 024 hydrochloride] | 0
CON(C)C(=O)N1N=C(c2cc(F)ccc2F)S[C@@]1(CCCN)c1ccccc1 [ARRY 520 trifluoroacetate] | 1

Could you tell me phenotypically active for each of these molecules? They are listed below.
1. CC1=C(/C=C/C(C)=C\C=C\C(C)=C\C(=O)O)C(C)(C)CCC1
2. CCCC(CCC)C(=O)O [Valproic acid, sodium salt]
3. CCC(NC(C)C)C(O)c1ccc(O)c(O)c1 (centres undefined)

[0, 0, 0]

Kindly give each listed record's phenotypically active.
1. Cc1ccc(S(=O)(=O)/C=C/C#N)cc1
2. CC(=O)O[C@@H]1C[C@H]2C(C)(C)C(=O)C=C[C@]2(C)[C@H]2CC[C@@]3(C)[C@H](c4ccoc4)OC(=O)[C@H]4O[C@]43[C@@]21C
3. CC(C)c1cnn2c(NCc3ccccc3)cc(NCCCCCCN)nc12 [BS 181 dihydrochloride]
4. CCCNC(C)C(=O)Nc1c(C)csc1C(=O)OC (centres undefined)

1: 0; 2: 1; 3: 0; 4: 0

Consider the following items and state reported phenotypically active for each.
1. Cc1cc(Nc2ccc(NC(=O)c3ccc(Nc4ccnc5ccccc45)cc3)cc2)nc(N)n1
2. O=C1NCCCC1C(=O)NCCc1c[nH]c2ccc(O)cc12 (centres undefined)
3. Nc1ccn([C@@H]2O[C@H](CO)[C@@H](O)[C@H]2O)c(=O)n1
4. Cc1ccc2nc(NCCN)c3ncc(C)n3c2c1
5. COc1cc2c(cc1-c1c(C)noc1C)ncc1[nH]c(=O)n([C@H](C)c3ccccn3)c12 [I-BET 151 dihydrochloride]
6. Cc1ccc([N+](=O)[O-])cc1S(=O)(=O)N(C)C

[1, 0, 0, 1, 1, 0]

// provenance: the supplement of paper PMC7411054
